Where do these numbers come from? They come from ChEMBL document CHEMBL5380857.

biological target: CDK8/Cyclin C (Homo sapiens, UniProt P49336); test: Inhibition of His tagged human recombinant CDK8/Cyclin C expressed in baculovirus expression system incubated for 15 mins by FRET-based LanthaScreen binding competition assay
Sequence (P49336 whole entry): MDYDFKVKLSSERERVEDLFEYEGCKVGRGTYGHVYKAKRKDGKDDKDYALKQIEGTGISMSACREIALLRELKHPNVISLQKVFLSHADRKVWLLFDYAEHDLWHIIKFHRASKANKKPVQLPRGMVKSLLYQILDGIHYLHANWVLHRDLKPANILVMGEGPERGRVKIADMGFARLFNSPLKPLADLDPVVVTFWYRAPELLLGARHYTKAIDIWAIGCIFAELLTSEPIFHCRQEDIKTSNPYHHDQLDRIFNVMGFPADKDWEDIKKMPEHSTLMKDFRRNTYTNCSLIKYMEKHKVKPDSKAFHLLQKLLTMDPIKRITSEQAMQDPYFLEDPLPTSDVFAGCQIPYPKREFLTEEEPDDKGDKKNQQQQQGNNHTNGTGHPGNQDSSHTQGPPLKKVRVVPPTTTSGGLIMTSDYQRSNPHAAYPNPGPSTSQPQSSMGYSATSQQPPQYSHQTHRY
Sequence (P24863 whole entry, further chain): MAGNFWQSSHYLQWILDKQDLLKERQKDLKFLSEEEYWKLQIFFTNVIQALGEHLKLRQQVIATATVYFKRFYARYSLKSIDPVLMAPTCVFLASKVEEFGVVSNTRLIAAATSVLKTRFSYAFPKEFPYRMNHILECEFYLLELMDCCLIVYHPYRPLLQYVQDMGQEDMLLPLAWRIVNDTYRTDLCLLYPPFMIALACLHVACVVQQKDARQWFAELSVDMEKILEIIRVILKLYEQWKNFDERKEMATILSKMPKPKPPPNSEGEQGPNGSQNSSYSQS
measure: IC50 (nM)
Your answer should be a plain number; it is taken to be in nM.

The cases that follow already have their IC50 on record.
[[record]]
compound = "Cc1n[nH]c2ncc(-c3nnc(C)n3Cc3ccc(Cl)cc3)cc12"
measure = "IC50"
reported_value = 17.1

[[record]]
compound = "Cc1n[nH]c2ccc(-c3nnc4n3[C@H](c3ccc(Cl)cc3)CC4)cc12"
measure = "IC50"
reported_value = 0.4

[[record]]
compound = "Cc1n[nH]c2ccc(-c3ncc(C)n3Cc3ccc(Cl)cc3)cc12"
measure = "IC50"
reported_value = 7.32

[[record]]
compound = "Cc1n[nH]c2ccc(-c3nnc(C)n3Cc3ccc(C#N)cc3)cc12"
measure = "IC50"
reported_value = 6.14

[[record]]
compound = "Cc1n[nH]c2ccc(-c3nnn(C)c3Cc3ccc(Cl)cc3)cc12"
measure = "IC50"
reported_value = 0.4

[[record]]
compound = "Cc1n[nH]c2ccc(-c3cnn(C)c3Cc3ccc(Cl)cc3)cc12"
measure = "IC50"
reported_value = 0.71


q: Query (compound): Cc1n[nH]c2ccc(-c3nnc4n3[C@H](c3ccc(Cl)cc3)CCC4)cc12 ; field requested: IC50
a: 0.37

q: Query (compound): Cc1n[nH]c2ncc(-c3nnc4n3[C@H](c3ccc(Cl)cc3)CC4)cc12 ; field requested: IC50
a: 1.5

q: Query (compound): Cc1n[nH]c2ccc(-c3nnc4n3[C@H](c3ccc(Cl)cc3)CN(C)C4)cc12 ; field requested: IC50
a: 0.83

q: Query (compound): COc1nnc(-c2ccc3[nH]nc(C)c3c2)n1Cc1ccc(Cl)cc1 ; field requested: IC50
a: 82.9

---

test: Half life in Sprague-Dawley rat at 5 mg/kg, po or 1 mg/kg, iv administered as single dose and measured for 24 hrs by LC-MS/MS analysis; type: ADME, organism-based; details: in vivo
measure: half-life

q: Query (compound): Cc1n[nH]c2ccc(-c3nnc(C)n3Cc3ccc(C(F)(F)F)cc3)cc12 ; field requested: half-life
a: 3.9 h

---

target: Glycogen synthase kinase-3 beta (Homo sapiens, UniProt P49841)
Sequence (P49841 whole entry): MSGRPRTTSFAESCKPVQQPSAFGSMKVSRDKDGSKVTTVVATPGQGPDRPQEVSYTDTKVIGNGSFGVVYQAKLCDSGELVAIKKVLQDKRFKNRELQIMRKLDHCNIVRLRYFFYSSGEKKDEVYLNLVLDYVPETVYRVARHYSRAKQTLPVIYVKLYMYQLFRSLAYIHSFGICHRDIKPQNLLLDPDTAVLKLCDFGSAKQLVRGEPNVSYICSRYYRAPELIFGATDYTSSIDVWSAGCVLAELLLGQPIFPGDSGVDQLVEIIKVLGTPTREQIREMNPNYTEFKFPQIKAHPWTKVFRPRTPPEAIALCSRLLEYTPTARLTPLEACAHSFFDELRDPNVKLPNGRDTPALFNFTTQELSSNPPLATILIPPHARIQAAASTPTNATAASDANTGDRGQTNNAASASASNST
measure: Kd (nM)
Your answer should be a plain number; it is taken to be in nM.

The cases that follow already have their Kd on record.
[[record]]
chem_smiles = "Cc1n[nH]c2ccc(-c3nnc(C)n3Cc3ccc(C(F)(F)F)cc3)cc12"
reported_value = 210

[[record]]
chem_smiles = "Cc1n[nH]c2ccc(-c3nnc(C)n3Cc3ccc(Cl)cc3)cc12"
reported_value = 56


Now turn to the next compound.
q: Query (compound): Cc1n[nH]c2ccc(-c3nnc4n3[C@H](c3ccc(Cl)cc3)CC4)nc12 ; field requested: Kd
a: 39

---

assay: Metabolic stability in rat liver microsomes assessed as intrinsic clearance at 1 uM preincubated for 10 mins followed by NADPH addition and measured for 60 mins by LC-MS/MS analysis; assay type: ADME, Microsome; conditions: read-out: CLH
Reported CLint scaled at 1 µM values follow for various compounds
Your answer should be a plain number; it is taken to be in mL/min/kg.

The cases that follow already have their CLint scaled at 1 µM on record.
[[record]]
chem_smiles = "Cc1n[nH]c2ccc(-c3nnc(C)n3Cc3ccc(C(F)(F)F)cc3)cc12"
measure = "CLint scaled at 1 µM"
readout_unit = "mL/min/kg"
reported_value = 29.9

[[record]]
chem_smiles = "Cc1n[nH]c2ccc(-c3nnc(C)n3Cc3ccc(Cl)cc3)cc12"
measure = "CLint scaled at 1 µM"
readout_unit = "mL/min/kg"
reported_value = 54.4

[[record]]
chem_smiles = "Cc1n[nH]c2ccc(-c3nnn(C)c3Cc3ccc(Cl)cc3)cc12"
measure = "CLint scaled at 1 µM"
readout_unit = "mL/min/kg"
reported_value = 385

[[record]]
chem_smiles = "Cc1n[nH]c2ccc(-c3nnc4n3[C@H](c3ccc(Cl)cc3)COC4)cc12"
measure = "CLint scaled at 1 µM"
readout_unit = "mL/min/kg"
reported_value = 118

[[record]]
chem_smiles = "Cc1n[nH]c2ccc(-c3nnc4n3[C@H](c3ccc(Cl)cc3)CC4)cc12"
measure = "CLint scaled at 1 µM"
readout_unit = "mL/min/kg"
reported_value = 151

[[record]]
chem_smiles = "Cc1n[nH]c2ncc(-c3nnc4n3[C@H](c3ccc(Cl)cc3)CC4)cc12"
measure = "CLint scaled at 1 µM"
readout_unit = "mL/min/kg"
reported_value = 104

[[record]]
chem_smiles = "Cc1n[nH]c2ccc(-c3nnc4n3[C@H](c3ccc(Cl)cc3)CC4)nc12"
measure = "CLint scaled at 1 µM"
readout_unit = "mL/min/kg"
reported_value = 270


Now turn to the next compound.
q: Query (compound): Cc1nnc(-c2ccc3[nH]nc(Cl)c3c2)n1Cc1ccc(Cl)cc1 ; field requested: CLint scaled at 1 µM
a: 54.5

---

Reported Kd values follow for various compounds
biological target: Glycogen synthase kinase-3 alpha (Homo sapiens, UniProt P49840)
Sequence (P49840 whole entry): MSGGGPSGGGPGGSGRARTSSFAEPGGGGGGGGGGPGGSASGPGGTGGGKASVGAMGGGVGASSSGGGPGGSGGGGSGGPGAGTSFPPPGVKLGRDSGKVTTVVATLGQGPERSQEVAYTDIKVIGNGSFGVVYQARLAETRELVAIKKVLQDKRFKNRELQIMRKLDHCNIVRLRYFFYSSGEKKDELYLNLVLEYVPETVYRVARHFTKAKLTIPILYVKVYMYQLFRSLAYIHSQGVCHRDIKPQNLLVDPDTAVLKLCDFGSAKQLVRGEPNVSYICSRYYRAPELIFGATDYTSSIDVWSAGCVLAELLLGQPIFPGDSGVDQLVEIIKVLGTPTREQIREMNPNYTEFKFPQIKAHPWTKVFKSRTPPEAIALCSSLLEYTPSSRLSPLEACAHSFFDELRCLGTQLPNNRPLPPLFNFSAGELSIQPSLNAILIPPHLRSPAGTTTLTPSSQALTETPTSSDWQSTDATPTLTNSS
Your answer should be a plain number; it is taken to be in µM.

[[record]]
chem_smiles = "Cc1n[nH]c2ccc(-c3nnc(C)n3Cc3ccc(Cl)cc3)cc12"
experimental_system = "Glycogen synthase kinase-3 alpha (Homo sapiens, UniProt P49840)"
reported_value = 0.12


q: Request: Kd, test system Glycogen synthase kinase-3 alpha (Homo sapiens, UniProt P49840), entry Cc1n[nH]c2ncc(-c3nnc4n3[C@H](c3ccc(Cl)cc3)CC4)cc12
a: 0.0065

---

test: Metabolic stability in mouse liver microsomes assessed as intrinsic clearance at 1 uM preincubated for 10 mins followed by NADPH addition and measured for 60 mins by LC-MS/MS analysis; assay type: ADME, Microsome; conditions: read-out: CLH
measure: CLint scaled at 1 µM (mL/min/kg)
Your answer should be a plain number; it is taken to be in mL/min/kg.

The cases that follow already have their CLint scaled at 1 µM on record.
[[record]]
chem_smiles = "Cc1n[nH]c2ccc(-c3nnc(C)n3Cc3ccc(C(F)(F)F)cc3)cc12"
measure = "CLint scaled at 1 µM"
reported_value = 148

[[record]]
chem_smiles = "Cc1n[nH]c2ccc(-c3nnc4n3[C@H](c3ccc(Cl)cc3)COC4)cc12"
measure = "CLint scaled at 1 µM"
reported_value = 720

[[record]]
chem_smiles = "Cc1n[nH]c2ccc(-c3nnc4n3[C@H](c3ccc(Cl)cc3)CNC4)cc12"
measure = "CLint scaled at 1 µM"
reported_value = 1310


q: Query (compound): Cc1n[nH]c2ccc(-c3cnn(C)c3Cc3ccc(Cl)cc3)cc12 ; field requested: CLint scaled at 1 µM
a: 536

q: Query (compound): Cc1nnc(-c2ccc3[nH]nc(Cl)c3c2)n1Cc1ccc(Cl)cc1 ; field requested: CLint scaled at 1 µM
a: 273

q: Query (compound): Cc1n[nH]c2ncc(-c3nnc4n3[C@H](c3ccc(Cl)cc3)CC4)cc12 ; field requested: CLint scaled at 1 µM
a: 368

---

target: Cytochrome P450 3A4 (Homo sapiens)
Sequence (P08684 whole entry): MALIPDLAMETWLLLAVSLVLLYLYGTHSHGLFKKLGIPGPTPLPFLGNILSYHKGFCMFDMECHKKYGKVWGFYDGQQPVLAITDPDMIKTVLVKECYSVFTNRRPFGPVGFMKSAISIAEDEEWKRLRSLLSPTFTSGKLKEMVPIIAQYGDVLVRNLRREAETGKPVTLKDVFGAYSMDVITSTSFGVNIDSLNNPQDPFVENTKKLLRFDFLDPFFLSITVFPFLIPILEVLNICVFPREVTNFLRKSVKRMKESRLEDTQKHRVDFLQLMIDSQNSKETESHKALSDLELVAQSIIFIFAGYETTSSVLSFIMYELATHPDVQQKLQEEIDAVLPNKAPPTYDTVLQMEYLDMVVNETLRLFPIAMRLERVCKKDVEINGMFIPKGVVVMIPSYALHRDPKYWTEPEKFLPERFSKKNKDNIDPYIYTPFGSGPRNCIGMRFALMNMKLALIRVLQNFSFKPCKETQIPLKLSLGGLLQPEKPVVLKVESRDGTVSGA
measure: IC50

q: Request: IC50, test system Cytochrome P450 3A4 (Homo sapiens), entry Cc1n[nH]c2ccc(-c3nnc(C)n3Cc3ccc(C(F)(F)F)cc3)cc12
a: > 50 µM

---

target: Phosphatidylinositol 3-kinase catalytic subunit type 3 (Homo sapiens); experiment: Binding affinity to VPS34 (unknown origin) assessed as dissociation constant by competitive binding assay
Sequence (Q8NEB9 whole entry): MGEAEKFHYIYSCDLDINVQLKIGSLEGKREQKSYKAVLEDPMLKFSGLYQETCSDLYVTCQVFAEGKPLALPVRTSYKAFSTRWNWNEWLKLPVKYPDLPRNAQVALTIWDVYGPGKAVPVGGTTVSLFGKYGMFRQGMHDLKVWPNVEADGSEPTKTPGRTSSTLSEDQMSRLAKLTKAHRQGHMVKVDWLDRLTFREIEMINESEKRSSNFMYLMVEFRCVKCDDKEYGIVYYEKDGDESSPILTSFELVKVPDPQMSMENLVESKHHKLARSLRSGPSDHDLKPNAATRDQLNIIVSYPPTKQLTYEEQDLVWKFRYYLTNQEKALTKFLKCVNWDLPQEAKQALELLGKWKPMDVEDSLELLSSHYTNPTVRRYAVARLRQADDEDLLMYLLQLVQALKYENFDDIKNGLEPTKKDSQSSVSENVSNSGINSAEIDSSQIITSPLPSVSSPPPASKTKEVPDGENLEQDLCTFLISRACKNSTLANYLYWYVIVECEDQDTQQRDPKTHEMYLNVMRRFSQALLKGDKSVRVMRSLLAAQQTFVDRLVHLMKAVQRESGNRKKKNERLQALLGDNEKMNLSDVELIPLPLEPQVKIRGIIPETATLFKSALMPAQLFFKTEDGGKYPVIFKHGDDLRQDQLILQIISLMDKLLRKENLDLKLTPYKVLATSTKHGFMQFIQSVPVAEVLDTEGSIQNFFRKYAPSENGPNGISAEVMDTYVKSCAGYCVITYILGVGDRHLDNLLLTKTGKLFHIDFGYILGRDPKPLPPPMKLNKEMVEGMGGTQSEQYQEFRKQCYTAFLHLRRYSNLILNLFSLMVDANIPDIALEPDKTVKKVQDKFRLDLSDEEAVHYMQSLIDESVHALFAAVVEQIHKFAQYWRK
pKd: −log10 of the molar value.
# pKd >= 6 gives rule met, anything below gives rule not met

[[record]]
chem_smiles = "Cc1n[nH]c2ccc(-c3nnc(C)n3Cc3ccc(C(F)(F)F)cc3)cc12"
experimental_system = "Phosphatidylinositol 3-kinase catalytic subunit type 3 (Homo sapiens)"
group = "rule not met"

[[record]]
chem_smiles = "Cc1n[nH]c2ncc(-c3nnc4n3[C@H](c3ccc(Cl)cc3)CC4)cc12"
experimental_system = "Phosphatidylinositol 3-kinase catalytic subunit type 3 (Homo sapiens)"
group = "rule not met"

[[record]]
chem_smiles = "Cc1n[nH]c2ccc(-c3nnc4n3[C@H](c3ccc(Cl)cc3)CC4)cc12"
experimental_system = "Phosphatidylinositol 3-kinase catalytic subunit type 3 (Homo sapiens)"
group = "rule met"

[[record]]
chem_smiles = "Cc1n[nH]c2ccc(-c3nnc(C)n3Cc3ccc(Cl)cc3)cc12"
experimental_system = "Phosphatidylinositol 3-kinase catalytic subunit type 3 (Homo sapiens)"
group = "rule not met"


We next turn to a different molecule, shown below.
q: Determine whether this molecule has pKd no lower than 6: Cc1n[nH]c2ccc(-c3nnc4n3[C@H](c3ccc(Cl)cc3)CC4)nc12
a: rule met

---

assay: Half life in Beagle dog at 1 mg/kg, po or 0.5 mg/kg, iv administered as single dose and measured for 24 hrs by LC-MS/MS analysis; type: ADME, organism-based, Canis lupus familiaris; conditions: in vivo
measure: half-life (h)
Your answer should be a plain number; it is taken to be in h.

q: Query (molecule): Cc1n[nH]c2ccc(-c3nnc(C)n3Cc3ccc(C(F)(F)F)cc3)cc12 ; field requested: half-life
a: 4.6
